The origin of these recorded values is PubChem BioAssay AID504834.

Experiment: Primary qHTS for delayed death inhibitors of the malarial parasite plastid, 96 hour incubation
Settings: P. falciparum luciferase reporter growth; series mostly up to 28.7 µM
The campaign covered roughly 320,000 compounds. About 22,000 (6.9%) were called active. About 27% were inconclusive and are not listed. Calls follow the shape of the dose curve; as a rule, active = well fitted inhibition curve with a large enough effect; inconclusive = small, poorly fitted or top-dose-only effect, or another doubt; inactive = no such curve, though single readings can be large or run the other way. This is one part of a sample in which actives are shown more often than they occur.
Labels: active, inactive

> print(dat)
                                    compound  label.class
 1  O=C(c1ccc(S(=O)(=O)N2CCCC2)cc1)N1CCN(c2ccccc2F)CC1       active
 2  O=C(c1ccc(S(=O)(=O)N2CCOCC2)cc1)N1CCN(c2ccccc2)CC1     inactive
 3  COc1ccc(S(=O)(=O)Nc2ccccc2C(=O)N2CCCC2)cc1C     inactive
 4  COc1ccccc1N1CCN(C(=O)c2ccc(S(=O)(=O)N3CCCCC3)cc2)CC1     inactive
 5  Cc1ccc(CSc2ccc(S(=O)(=O)N3CCCCC3)cn2)cc1     inactive
 6  COc1ccc(OC)c(C(=O)NC(CC(N)=O)c2ccc(N3CCC(N4CCCCC4)CC3)c([N+](=O)[O-])c2)c1 (stereo not given)     inactive
 7  COc1ccccc1NC(=O)C1CCN(C(=O)c2ccc(C(C)(C)C)cc2)CC1     inactive
 8                   CN(C)C(=O)N=NC(=O)N(C)C     inactive
 9  COc1ccccc1NS(=O)(=O)c1ccc(C(=O)N2CCN(c3ccccc3O)CC2)cc1       active
10         O=C(Nc1nnc(C2CC2)s1)c1cc(Cl)sc1Cl     inactive

---

Assay: Primary qHTS for delayed death inhibitors of the malarial parasite plastid, 96 hour incubation
Conditions: P. falciparum luciferase reporter growth; series mostly up to 28.7 µM
Screen size: about 320,000 compounds; about 22,000 (6.9%) were called active. Inconclusive results (about 27%) are left out. Calls come from the whole dose curve; as a rule, active = well fitted inhibition curve with a large enough effect; inconclusive = small, poorly fitted or top-dose-only effect, or another doubt; inactive = no such curve, though single readings can be large or run the other way. This excerpt belongs to a sample that is enriched for actives.
Labels: Yes for active, No for inactive

> print(dat)
                                    compound  label.class
 1  COc1cc(NS(=O)(=O)c2ccc(NC(=S)NC(=O)c3ccc(Br)cc3)cc2)ncn1           No
 2  Cc1cc(C(=O)NCCc2ccc(Cl)cc2)n(-c2ccccc2)n1           No
 3  C=CCn1c(N)c(C(=O)OCC(C)C)c2nc3ccccc3nc21           No
 4  CCC(C)NC(=O)c1c(N)n(/N=C/c2cccs2)c2nc3ccccc3nc12 (stereo not drawn)          Yes
 5       O=C(Nc1ccccc1N1CCOCC1)c1csc2c1CCCC2          Yes
 6              Cc1ccc(OCCCCN2CCCCC2)c(Br)c1           No
 7            O=C(Nc1ccccc1N1CCOCC1)c1ccncc1           No
 8  CSC1=NC2(C)CCCCC2C12C=CC(=O)C=C2 (stereo not drawn)          Yes
 9                 O=C(Oc1ccc(F)cc1)N1CCOCC1           No
10  Cc1cc(C)cc(N(CC(=O)NCC2CCCO2)S(=O)(=O)c2c(C)noc2C)c1 (stereo not drawn)           No
11  Cc1ccc(OCCC(=O)OCC(=O)N2c3ccccc3NC(=O)C2(C)C)cc1           No
12  COc1cccc(S(=O)(=O)NCc2ccc(C(=O)NCc3ccccn3)cc2)c1          Yes
13                C=CCc1cc(C)ccc1OCCCn1ccnc1          Yes
14             O=C(NCc1csc(-c2cccs2)n1)C1CC1           No
15      CSc1nccc(NC(=O)c2ccc(C(C)(C)C)cc2)n1           No
16  Cc1cc(C)cc(N(CC(=O)N2CC=C(c3ccccc3)CC2)S(=O)(=O)c2c(C)noc2C)c1          Yes
17  CC(Oc1ccccc1[N+](=O)[O-])C(=O)N/N=C/c1ccoc1 (stereo not drawn)           No
18  CC(C)[C@H](NC(=O)OCc1ccccc1)C(=O)OCc1ccccc1           No
19  Cc1ccc(C)c(NC(=O)COC(=O)Cn2c(C)csc2=O)c1           No
20  CC1(C)SC2c3ccccc3C(=O)N2[C@@H]1C(=O)NCc1ccco1 (stereo partly drawn)          Yes
21  Cc1cc(C)c(S(=O)(=O)n2cc(C(C)C(N)C(=O)O)c3ccccc32)c(C)c1 (stereo not drawn)           No
22             Clc1c(OCCCn2ccnc2)ccc2ccccc12           No
23  NC(=O)C1CCN(C(=O)c2ccc3c(=O)n(Cc4cccc(Br)c4)c(=S)[nH]c3c2)CC1           No
